All values here come from the supplement of paper PMC8728848.

targetSystem: Man(a1-2)Man(a1-2)Man(a1-3)Man
protocolText: glycan array binding signal (z-score within array); higher = stronger binding
measurementContext: glycan notation: IUPAC condensed, linker removed
About 410 targets per protein were measured; listed, in parts, are those with the strongest signals and a random draw of the rest.
Measured glycan array binding signal (z-score) accompanies every entry in the list below.
measuredProperty: glycan array binding signal (z-score)

- binder: "OVGAL11 (Ovis aries), AAF64320 (protein) MDSLPNPYLQSVSLTVCYMVKIKANLLSAFGKNPELQVDFGTGTGQGGNIPFRFWYCDGMVVMNTFTDGSWQKEEKVLTDAFVPGQPFELQFLVLEKEYQVFVKNKPICQFAHRLPLQSVKMLDVRGDIVLTSVDTL"
  recordedValue: 4.38
- binder: "CALR truncated at D342 (Homo sapiens) (protein) EPAVYFKEQFLDGDGWTSRWIESKHKSDFGKFVLSSGKFYGDEEKDKGLQTSQDARFYALSASFEPFSNKGQTLVVQFTVKHEQNIDCGGGYVKLFPNSLDQTDMHGDSEYNIMFGPDICGPGTKKVHVIFNYKGKNVLINKDIRCKDDEFTHLYTLIVRPDNTYEVKIDNSQVESGSLEDDWDFLPPKKIKDPDASKPEDWDERAKIDDPTDSKPEDWDKPEHIPDPDAKKPEDWDEEMDGEWEPPVIQNPEYKGEWKPRQIDNPDYKGTWIHPEIDNPEYSPDPSIYAYDNFGVLGLDLWQVKSGTIFDNFLITNDEAYAEEFGNETWGVTKAAEKQMKD"
  recordedValue: -0.176
- binder: "HMGB1 (Rattus norvegicus), P63159 (protein) MGKGDPKKPRGKMSSYAFFVQTCREEHKKKHPDASVNFSEFSKKCSERWKTMSAKEKGKFEDMAKADKARYEREMKTYIPPKGETKKKFKDPNAPKRPPSAFFLFCSEYRPKIKGEHPGLSIGDVAKKLGEMWNNTAADDKQPYEKKAAKLKEKYEKDIAAYRAKGKPDAAKKGVVKAEKSKKKKEEEDDEEDEEDEEEEEEEEDEDEEEDDDDE"
  recordedValue: -0.58
